Below: a set of entries, each annotated with reported folding stability dG.
B1: HEEH_KT_rd6_3546 (parent)
chain: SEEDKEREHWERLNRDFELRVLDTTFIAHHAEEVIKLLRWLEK

- Variants of: B1
- Test: folding stability dG (cDNA display proteolysis); higher = more stable
- Experimental conditions: PBS, room temperature

{"columns": ["Variant annotation", "folding stability dG, kcal/mol"],
 "data": [
  ["H9I", 1.86],
  ["L38C", 1.78],
  ["H9T", 1.5],
  ["R7Q", 1.34],
  ["R20Y", 2.39],
  ["F26V", 0.759],
  ["R20L", 1.93],
  ["A31Q", 0.833],
  ["H9P", 1.1],
  ["E3T", 1.19],
  ["D16S", 1.57]
]}
